# target.entity: human adenosine A2A receptor (Homo sapiens, UniProt P29274)
# Construct: expressed in transfected cells; host or cells: HEK293 cells infected with BacMam
# Sequence (P29274 whole entry): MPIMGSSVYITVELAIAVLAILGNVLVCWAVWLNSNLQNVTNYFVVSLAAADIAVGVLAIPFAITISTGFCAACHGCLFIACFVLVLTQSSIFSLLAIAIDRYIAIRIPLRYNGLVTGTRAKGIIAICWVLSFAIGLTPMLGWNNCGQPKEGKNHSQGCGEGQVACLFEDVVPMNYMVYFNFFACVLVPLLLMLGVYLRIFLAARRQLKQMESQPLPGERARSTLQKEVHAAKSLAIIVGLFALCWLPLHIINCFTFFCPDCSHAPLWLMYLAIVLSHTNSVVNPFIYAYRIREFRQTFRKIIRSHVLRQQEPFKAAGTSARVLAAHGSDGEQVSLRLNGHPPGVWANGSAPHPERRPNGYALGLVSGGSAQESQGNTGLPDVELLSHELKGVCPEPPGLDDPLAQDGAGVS
# measurement.description: Inhibition binding assay, human adenosine A2A receptor membranes, [3H]ZM241385
# assay.conditions: 1 nM [3H]ZM241385, HEK293-hA2A membranes, 25° C., 1 h; IC50 converted to Ki with Cheng-Prusoff; read-out: A2A pKi (converted)
quantity.kind: Ki (µM)
Write it as a number; the unit µM goes unstated.

Here's what some known entries look like.
compound="Cc1cc(-c2c(-c3ccccc3)nc(N)n3c(=O)n(CC4CCCS(=O)(=O)C4)nc23)cc(C)n1 (single isomer, unassigned) [Example 2-89-iso-2]" number=0.0251
compound="Cc1cc(-c2c(-c3ccccc3)nc(N)n3c(=O)n(Cc4ccc(F)c(O)n4)nc23)cc(CO)n1 [Example 1-48]" number=0.01
compound="Cc1cc(-c2c(-c3ccccc3)nc(N)n3c(=O)n(Cc4cccc(F)c4Cl)nc23)cc(C)n1 [Example 1-21]" number=0.000501

Here's the next entry for you.
Data request: Which Ki value belongs to CCOC(=O)N(C)CCn1nc2c(-c3cc(C)nc(C)c3)c(-c3ccccc3)nc(N)n2c1=O [Example 2-13] ?
Data returned: 0.0158

----------
# target.entity: human adenosine A1 receptor (Homo sapiens, UniProt P30542)
# Construct: expressed in transfected cells; host or cells: HEK293 cells infected with BacMam (the same paragraph also labels the preparation CHO-hA1)
# Sequence (P30542 1-326): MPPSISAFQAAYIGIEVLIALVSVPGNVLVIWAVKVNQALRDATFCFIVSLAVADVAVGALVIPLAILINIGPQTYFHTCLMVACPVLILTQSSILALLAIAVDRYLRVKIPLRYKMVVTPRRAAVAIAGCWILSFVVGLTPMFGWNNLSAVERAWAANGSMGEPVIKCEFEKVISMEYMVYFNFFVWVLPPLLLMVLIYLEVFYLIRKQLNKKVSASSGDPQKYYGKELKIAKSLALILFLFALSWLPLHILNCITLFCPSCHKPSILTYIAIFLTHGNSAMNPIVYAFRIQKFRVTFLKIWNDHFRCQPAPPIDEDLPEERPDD
# measurement.description: Inhibition binding assay, human adenosine A1 receptor membranes, [3H]DPCPX
# assay.conditions: 1 nM [3H]DPCPX, 25° C., 1 h; IC50 converted to Ki with Cheng-Prusoff; read-out: A1 pKi (converted)
quantity.kind: Ki (nM)
Write it as a number; the unit nM goes unstated.

compound="Cc1cc(-c2c(-c3ccccc3)nc(N)n3c(=O)n(C4Cc5ccc(N)cc5C4)nc23)cc(C)n1 (stereo not shown)" number=100

Here's the next entry for you.
Data request: Which Ki value belongs to "Cc1cc(-c2c(-c3ccccc3)nc(N)n3c(=O)n(C[C@@H]4CN(C)CCO4)nc23)cc(C)n1" ?
Data returned: 631

----------
# target.entity: human adenosine A2A receptor (Homo sapiens)
# Construct: expressed in transfected cells; host or cells: HEK293 cells infected with BacMam
# measurement.description: Inhibition binding assay, human adenosine A2A receptor membranes, [3H]ZM241385
# assay.conditions: 1 nM [3H]ZM241385, HEK293-hA2A membranes, 25° C., 1 h; IC50 converted to Ki with Cheng-Prusoff; read-out: A2A pKi (converted)
quantity.kind: Ki (nM)
Write it as a number; the unit nM goes unstated.

molecule="COc1cccc(Cn2nc3c(-c4cc(C)nc(C)c4)c(-c4ccccc4)nc(N)n3c2=O)n1 [Example 1-6]" units_of_measure=nM number=0.794

Data request: Which Ki value belongs to CC1=NN(c2cccc(NCCn3nc4c(-c5cc(C)nc(C)c5)c(-c5ccccc5)nc(N)n4c3=O)c2)C(=O)C1 [Example 1-98] ?
Data returned: 79.4

Data request: Try this molecule too: COc1cnc(Cn2nc3c(-c4cc(C)nc(CO)c4)c(-c4ccccc4)nc(N)n3c2=O)c(F)c1 [Example 1-47]
Data returned: 7.94

Data request: Try this molecule too: Cc1cc(-c2c(-c3ccccc3)nc(N)n3c(=O)n(CCCn4ccccc4=O)nc23)cc(C)n1 [Example 2-112]
Data returned: 3.16

Data request: Try this molecule too: COc1ncc(F)cc1Cn1nc2c(-c3cc(C)nc(C)c3)c(-c3ccccc3)nc(N)n2c1=O [Example 1-40]
Data returned: 0.794

Data request: Try this molecule too: COc1cc(-c2c(-c3ccccc3)nc(N)n3c(=O)n(Cc4ccc(F)cn4)nc23)cc(C)n1 [Example 1-78]
Data returned: 0.126

Data request: Try this molecule too: COc1cc(-c2c(-c3ccc(F)cc3)nc(N)n3c(=O)n(Cc4ccc(Cl)cn4)nc23)cc(CO)n1 [Example 1-68]
Data returned: 1.26
